experiment: Oral bioavailability in rat at 5 mg/kg; format: ADME, organism-based; details: in vivo
Property Name: bioavailability
Remember to put the unit after the number in your answer.

**Q:** What value of bioavailability has been recorded for this entry: NS(=O)(=O)c1cncc(-c2nc(NCc3ccccn3)c3c(-c4ccccc4)cccc3n2)c1 [BMS-919373]
**A:** 100%

----------
target: hERG (KCNH2) (Homo sapiens); test: Inhibition of human ERG expressed in HEK293 cells at 10 uM by patch clamp method relative to control; assay type: cell-based; details: HEK293 cells expressing human ERG
Sequence (Q12809 whole entry): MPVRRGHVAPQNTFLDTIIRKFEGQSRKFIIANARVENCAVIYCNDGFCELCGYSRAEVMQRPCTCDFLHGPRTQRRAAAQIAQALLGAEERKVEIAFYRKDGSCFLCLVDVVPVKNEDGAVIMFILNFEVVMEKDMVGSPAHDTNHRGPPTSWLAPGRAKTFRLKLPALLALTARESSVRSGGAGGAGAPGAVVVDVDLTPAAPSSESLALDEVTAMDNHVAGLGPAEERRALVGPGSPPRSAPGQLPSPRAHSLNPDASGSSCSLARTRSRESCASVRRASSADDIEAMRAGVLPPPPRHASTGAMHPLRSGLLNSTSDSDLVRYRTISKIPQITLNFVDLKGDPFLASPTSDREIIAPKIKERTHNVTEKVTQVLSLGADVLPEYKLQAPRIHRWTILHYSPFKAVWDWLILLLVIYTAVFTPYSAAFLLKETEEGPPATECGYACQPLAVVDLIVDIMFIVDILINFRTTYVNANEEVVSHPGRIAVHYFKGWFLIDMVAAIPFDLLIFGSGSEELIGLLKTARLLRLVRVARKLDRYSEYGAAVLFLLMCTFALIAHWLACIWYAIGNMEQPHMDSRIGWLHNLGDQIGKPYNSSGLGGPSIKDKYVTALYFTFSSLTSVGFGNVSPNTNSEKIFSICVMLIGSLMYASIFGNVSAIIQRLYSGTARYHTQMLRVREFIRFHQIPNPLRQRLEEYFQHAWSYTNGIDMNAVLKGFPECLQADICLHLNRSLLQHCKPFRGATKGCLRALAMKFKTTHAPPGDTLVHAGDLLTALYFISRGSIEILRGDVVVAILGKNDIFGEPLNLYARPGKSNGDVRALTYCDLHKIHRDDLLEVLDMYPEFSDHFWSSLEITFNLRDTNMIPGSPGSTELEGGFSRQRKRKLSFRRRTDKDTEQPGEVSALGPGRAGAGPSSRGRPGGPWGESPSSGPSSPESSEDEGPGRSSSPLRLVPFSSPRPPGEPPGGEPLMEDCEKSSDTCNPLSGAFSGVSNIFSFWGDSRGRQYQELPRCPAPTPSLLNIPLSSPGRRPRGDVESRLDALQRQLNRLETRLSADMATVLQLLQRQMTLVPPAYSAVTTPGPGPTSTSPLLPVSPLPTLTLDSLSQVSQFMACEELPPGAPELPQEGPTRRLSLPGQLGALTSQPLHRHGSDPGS
Property Name: inhibition at 10 µM (%)
The figure you give is taken to be in %; do not add the unit.

**Q:** What value of inhibition at 10 µM has been recorded for this entry: `CS(=O)(=O)Nc1cncc(-c2nc(NCc3ccccn3)c3c(-c4ccccc4)cccc3n2)c1`
**A:** 94

----------
target: Potassium voltage-gated channel subfamily A member 5 (Homo sapiens, UniProt P22460); details: at 0.3 µM
Sequence (P22460 whole entry): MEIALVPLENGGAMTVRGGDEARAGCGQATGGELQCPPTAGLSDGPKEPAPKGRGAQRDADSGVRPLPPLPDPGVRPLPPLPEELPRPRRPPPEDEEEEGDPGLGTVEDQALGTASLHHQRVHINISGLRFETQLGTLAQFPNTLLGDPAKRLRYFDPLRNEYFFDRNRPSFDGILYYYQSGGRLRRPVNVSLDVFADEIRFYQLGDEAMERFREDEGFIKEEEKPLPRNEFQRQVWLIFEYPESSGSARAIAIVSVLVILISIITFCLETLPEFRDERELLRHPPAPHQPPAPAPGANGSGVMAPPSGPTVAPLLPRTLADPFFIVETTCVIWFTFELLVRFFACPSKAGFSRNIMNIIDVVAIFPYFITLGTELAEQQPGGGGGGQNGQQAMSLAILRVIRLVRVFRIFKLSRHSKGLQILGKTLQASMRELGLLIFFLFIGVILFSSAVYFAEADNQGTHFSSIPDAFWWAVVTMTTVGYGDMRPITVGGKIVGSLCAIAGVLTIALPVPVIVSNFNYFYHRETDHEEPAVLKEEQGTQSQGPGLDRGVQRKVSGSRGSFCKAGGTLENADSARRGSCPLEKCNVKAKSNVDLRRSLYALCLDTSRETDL
Description: Inhibition of recombinant human Kv1.5 expressed in mouse L929 cells at 0.3 uM by patch clamp assay relative to control
Property Name: inhibition (%)
The figure you give is taken to be in %; do not add the unit.

The cases that follow already have their inhibition on record.
NC(=O)c1cncc(-c2nc(NCc3ccccn3)c3c(-c4ccccc4)cccc3n2)c1
89
NC(=O)Nc1cncc(-c2nc(NCc3ccccn3)c3c(-c4ccccc4)cccc3n2)c1
91
NS(=O)(=O)c1ccc(-c2nc(NCc3ccccn3)c3c(-c4ccccc4)cccc3n2)cn1
92
Nc1ncc(-c2nc(NCc3ccccn3)c3c(-c4ccccc4)cccc3n2)cn1
95
CC(=O)Nc1ccc(-c2nc(NCc3ccccn3)c3c(-c4ccccc4)cccc3n2)cn1
80
NS(=O)(=O)c1ccncc1-c1nc(NCc2ccccn2)c2c(-c3ccccc3)cccc2n1
48

// moving on: another record for inhibition
**Q:** Record `NC(=O)Nc1ccc(-c2nc(NCc3ccccn3)c3c(-c4ccccc4)cccc3n2)cn1` : what is its inhibition with Potassium voltage-gated channel subfamily A member 5 (Homo sapiens, UniProt P22460)?
**A:** 79

----------
test: Ratio of drug level in Sprague-Dawley rat brain to plasma at 3 mg/kg, iv administered as 10 mins infusion by LC-MS/MS analysis; type: ADME, organism-based; details: brain and plasma, read-out: BPR
# maps each entry to its Kp at 10 min
Just the number, please, no unit after it.

The cases that follow already have their Kp at 10 min on record.
O=C(NCC(F)(F)F)c1ccc(-c2cccc3nc(-c4cncnc4)nc(NCc4ccccn4)c23)cc1
0.3
NC(=O)c1cncc(-c2nc(NCc3ccccn3)c3c(-c4ccccc4)cccc3n2)c1
0.3
NS(=O)(=O)c1ccc(CCNc2nc(Cl)nc3cccc(-c4ccccc4)c23)cc1
0.6
NS(=O)(=O)c1ccc(-c2nc(NCc3ccccn3)c3c(-c4ccccc4)cccc3n2)cn1
0.4
NS(=O)(=O)c1cncc(-c2nc(NCc3ccccn3)c3c(-c4ccccc4)cccc3n2)c1 [BMS-919373]
0.1

**Q:** What value of Kp at 10 min has been recorded for this entry: `COc1ncc(-c2nc(NCc3ccccn3)c3c(-c4ccccc4)cccc3n2)cn1`
**A:** 2.5

**Q:** Then `NC(=O)Nc1cncc(-c2nc(NCc3ccccn3)c3c(-c4ccccc4)cccc3n2)c1` ?
**A:** 0.04

----------
# maps each entry to its Kp at 10 min
assay: Ratio of drug level in Sprague-Dawley rat brain to plasma at 3 mg/kg, iv administered as 10 mins infusion by LC-MS/MS analysis; type: ADME, organism-based; conditions: brain and plasma, read-out: BPR
Just the number, please, no unit after it.

The cases that follow already have their Kp at 10 min on record.
NC(=O)Nc1ccc(-c2nc(NCc3ccccn3)c3c(-c4ccccc4)cccc3n2)cn1
1
c1ccc(CNc2nc(-c3cncnc3)nc3cccc(-c4cccc(N5CCOCC5)c4)c23)nc1
0.3

// moving on: another record for Kp at 10 min
**Q:** What value of Kp at 10 min has been recorded for this entry: `O=S(=O)(c1cccc(Nc2nc(Cl)nc3cccc(-c4ccccc4)c23)c1)N1CCOCC1`
**A:** 3
